System: Mycobacterium tuberculosis
method_description: Growth inhibition of Mycobacterium tuberculosis H37Rv at 6.25 ug/mL by MABA assay
Assay type: functional
observable: inhibition at 6.25 µg/mL
Don't forget the unit after the number, please.

1) Cc1cn([C@@H]2C[C@H](O)[C@@H](CNC(=S)Nc3ccc(Cl)c(Cl)c3)O2)c(=O)[nH]c1=O : 38%
2) Cc1cn(COCCNC(=S)Nc2ccc(Cl)c(C(F)(F)F)c2)c(=O)[nH]c1=O : 34%
3) Cc1cn([C@@H]2C[C@H](O)[C@@H](CNC(=S)Nc3ccc(Cl)c(C(F)(F)F)c3)O2)c(=O)[nH]c1=O : 39%
4) Cc1cn([C@@H]2C=C[C@@H](CNC(=S)Nc3ccc(Cl)c(C(F)(F)F)c3)O2)c(=O)[nH]c1=O : 55%
5) Cc1cn([C@@H]2C[C@H](O)[C@@H](CNC(=O)Nc3ccc(Cl)c(C(F)(F)F)c3)O2)c(=O)[nH]c1=O : 49%

Please fill in: inhibition at 6.25 µg/mL reported for "Cc1cn([C@@H]2CC[C@@H](CNC(=S)Nc3ccc(Cl)c(C(F)(F)F)c3)O2)c(=O)[nH]c1=O" = 34%

Please fill in: inhibition at 6.25 µg/mL reported for "Cc1cn([C@@H]2C[C@H](O)[C@@H](CNC(=O)Nc3ccc(Cl)c(Cl)c3)O2)c(=O)[nH]c1=O" = 41%

----------
Below, each entry is listed alongside its reported MCC at 72 h, up to 100 µM.
method_description: Cytotoxicity against Vero cells at 100 uM after 3 days
Format: cell-based
condition_summary: chlorocebus sabaeus

1. Cc1cn([C@@H]2C[C@H](O)[C@@H](CNC(=S)Nc3ccc(Cl)c(C(F)(F)F)c3)O2)c(=O)[nH]c1=O : > 100 µM
2. Cc1cn(COCCNC(=S)Nc2ccccc2)c(=O)[nH]c1=O : > 100 µM
3. Cc1ccc(NC(=S)NC[C@H]2C[C@H](n3cc(C)c(=O)[nH]c3=O)O[C@@H]2CO)cc1 : > 100 µM

Please fill in: MCC at 72 h, up to 100 µM reported for "Cc1cn([C@@H]2C[C@H](O)[C@@H](CNC(=S)NCCc3ccccc3)O2)c(=O)[nH]c1=O" = > 100 µM

Please fill in: MCC at 72 h, up to 100 µM reported for "Cc1cn([C@@H]2C[C@H](O)[C@@H](CNC(=S)Nc3ccc(Cl)c(Cl)c3)O2)c(=O)[nH]c1=O" = > 100 µM

Please fill in: MCC at 72 h, up to 100 µM reported for "Cc1cn([C@@H]2C[C@H](O)[C@@H](CNC(=S)Nc3ccccc3)O2)c(=O)[nH]c1=O" = > 100 µM

Please fill in: MCC at 72 h, up to 100 µM reported for "Cc1cn([C@H]2C[C@H](CNC(=S)Nc3ccc(Cl)c(Cl)c3)[C@@H](CO)O2)c(=O)[nH]c1=O" = > 100 µM

Please fill in: MCC at 72 h, up to 100 µM reported for "Cc1cn([C@@H]2C[C@H](O)[C@@H](CNC(=S)NC34CC5CC(CC(C5)C3)C4)O2)c(=O)[nH]c1=O" = > 100 µM

----------
system_under_test: Thymidylate kinase (Mycobacterium tuberculosis, UniProt P9WKE1)
Sequence (P9WKE1 whole entry): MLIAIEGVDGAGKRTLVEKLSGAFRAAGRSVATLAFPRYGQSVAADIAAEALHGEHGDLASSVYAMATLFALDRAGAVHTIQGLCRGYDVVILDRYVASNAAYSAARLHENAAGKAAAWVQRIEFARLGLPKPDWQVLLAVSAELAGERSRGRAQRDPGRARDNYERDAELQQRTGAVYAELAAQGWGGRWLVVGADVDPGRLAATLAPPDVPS
Below, each entry is listed alongside its reported Ki.
Report the value in µM with no unit label.

Example entries and their recorded answers appear below.
1. Cc1cn([C@@H]2C=C[C@@H](CNC(=S)Nc3ccc(Cl)c(C(F)(F)F)c3)O2)c(=O)[nH]c1=O : 3.8
2. Cc1ccc(NC(=S)NC[C@H]2O[C@H](n3cc(C)c(=O)[nH]c3=O)C[C@@H]2O)cc1 : 7.8
3. Cc1cn([C@@H]2C[C@H](O)[C@@H](CNC(=S)Nc3ccc4c(c3)C(=O)OC43c4ccc(O)cc4Oc4cc(O)ccc43)O2)c(=O)[nH]c1=O : 5.4
4. Cc1cn([C@H]2C[C@H](CNC(=S)Nc3ccc(Cl)c(Cl)c3)[C@@H](CO)O2)c(=O)[nH]c1=O : 7.2
5. Cc1cn([C@@H]2C[C@H](O)[C@@H](CN)O2)c(=O)[nH]c1=O : 16
6. Cc1cn(COCCNC(=S)Nc2ccccc2)c(=O)[nH]c1=O : 260

Please fill in: Ki reported for "Cc1cn([C@@H]2C[C@H](O)[C@@H](CNC(=S)NCc3ccccc3)O2)c(=O)[nH]c1=O" = 5.4

Please fill in: Ki reported for "Cc1cn([C@@H]2C[C@H](O)[C@@H](CNC(=S)NCCc3ccccc3)O2)c(=O)[nH]c1=O" = 3.8

Please fill in: Ki reported for "Cc1cn([C@@H]2C[C@H](O)[C@@H](CNC(=S)NCc3ccc(Cl)c(C(F)(F)F)c3)O2)c(=O)[nH]c1=O" = 2.6

Please fill in: Ki reported for "Cc1cn(COCCNC(=S)Nc2ccc(Cl)c(C(F)(F)F)c2)c(=O)[nH]c1=O" = 37

Please fill in: Ki reported for "Cc1cn([C@H]2C[C@H](CNC(=S)Nc3ccc(Cl)c(C(F)(F)F)c3)[C@@H](CO)O2)c(=O)[nH]c1=O" = 5

Please fill in: Ki reported for "Cc1cn([C@@H]2C[C@H](O)[C@@H](CNC(=S)Nc3ccc(Cl)c(Cl)c3)O2)c(=O)[nH]c1=O" = 1

Please fill in: Ki reported for "Cc1cn([C@@H]2C[C@H](O)[C@@H](CNC(=O)c3ccccc3)O2)c(=O)[nH]c1=O" = 35

Please fill in: Ki reported for "Cc1cn([C@@H]2C[C@H](O)[C@@H](CNC(=S)Nc3ccc(N4CCOCC4)cc3)O2)c(=O)[nH]c1=O" = 19.2

----------
Below, each entry is listed alongside its reported Ki.
system_under_test: Thymidylate kinase (Mycobacterium tuberculosis, UniProt P9WKE1)
Sequence (P9WKE1 whole entry): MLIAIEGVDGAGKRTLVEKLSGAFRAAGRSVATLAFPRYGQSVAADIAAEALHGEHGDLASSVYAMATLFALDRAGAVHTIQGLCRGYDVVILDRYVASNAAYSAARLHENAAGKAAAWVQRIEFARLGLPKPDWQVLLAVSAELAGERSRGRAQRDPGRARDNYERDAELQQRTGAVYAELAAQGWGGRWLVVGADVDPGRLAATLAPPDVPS
Don't forget the unit after the number, please.

Example entries and their recorded answers appear below.
1) Cc1cn([C@@H]2C[C@H](O)[C@@H](CNC(=S)NCCc3ccc(Cl)c(Cl)c3)O2)c(=O)[nH]c1=O : 2.2 µM
2) Cc1cn([C@H]2C[C@H](CNC(=S)Nc3ccc(OCc4ccccc4)cc3)[C@@H](CO)O2)c(=O)[nH]c1=O : 12 µM
3) Cc1cn([C@H]2C[C@H](CNC(=S)Nc3ccccc3)[C@@H](CO)O2)c(=O)[nH]c1=O : 69 µM
4) Cc1cn([C@@H]2C[C@H](O)[C@@H](CNC(=S)NC(c3ccccc3)c3ccccc3)O2)c(=O)[nH]c1=O : 4.9 µM
5) Cc1ccc(NC(=S)NC[C@H]2C[C@H](n3cc(C)c(=O)[nH]c3=O)O[C@@H]2CO)cc1 : 36 µM
6) Cc1cn([C@@H]2CC[C@@H](CNC(=S)Nc3ccc(Cl)c(C(F)(F)F)c3)O2)c(=O)[nH]c1=O : 2.3 µM
7) COc1ccc(NC(=S)NC[C@H]2O[C@H](n3cc(C)c(=O)[nH]c3=O)C[C@@H]2O)cc1 : 10 µM

Consider the record given below.
Please fill in: Ki reported for "Cc1cn([C@@H]2C[C@H](O)[C@@H](CNC(=O)Nc3ccc(Cl)c(C(F)(F)F)c3)O2)c(=O)[nH]c1=O" = 1.9 µM

----------
system_under_test: Thymidylate kinase (Mycobacterium tuberculosis)
Sequence (P9WKE1 whole entry): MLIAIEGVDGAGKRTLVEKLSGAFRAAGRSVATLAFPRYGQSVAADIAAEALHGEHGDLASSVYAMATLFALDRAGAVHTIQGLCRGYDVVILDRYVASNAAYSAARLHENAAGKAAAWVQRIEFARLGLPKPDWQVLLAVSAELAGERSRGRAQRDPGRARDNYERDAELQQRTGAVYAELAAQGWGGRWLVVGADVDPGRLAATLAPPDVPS
observable: Ki (µM)
Report the value in µM with no unit label.

Example entries and their recorded answers appear below.
1. Cc1cn([C@@H]2C[C@H](O)[C@@H](CN=[N+]=[N-])O2)c(=O)[nH]c1=O : 26.5
2. Cc1cn([C@@H]2C[C@H](O)[C@@H](CNC(=S)NC34CC5CC(CC(C5)C3)C4)O2)c(=O)[nH]c1=O : 15
3. Cc1cn([C@@H]2C[C@H](O)[C@@H](CNC(=S)Nc3ccc(Cl)cc3)O2)c(=O)[nH]c1=O : 3.2
4. Cc1cn([C@@H]2C[C@@H](CNC(=O)NC[C@H]3C[C@H](n4cc(C)c(=O)[nH]c4=O)O[C@@H]3CO)[C@H](CO)O2)c(=O)[nH]c1=O : 37
5. Cc1cn([C@@H]2C[C@H](O)[C@@H](CNC(=O)Nc3ccc(Cl)c(Cl)c3)O2)c(=O)[nH]c1=O : 1.1

Consider the record given below.
Please fill in: Ki reported for "Cc1cn([C@H]2C[C@H](CNC(=S)Nc3ccc(Cl)cc3)[C@@H](CO)O2)c(=O)[nH]c1=O" = 21
